Attribution: ChEMBL document CHEMBL1772948

Test system: Toxoplasma gondii
PROTOCOL_TEXT: Antiparasitic activity against yellow fluorescent protein expressing Toxoplasma gondii 2F-1 treated immediately after infection for 48 hrs followed by reinoculated into fresh HFF monolayers measured after 48 hrs
Assay type: functional, organism-based
EXPERIMENTAL_CONDITIONS: 2F-1, 48 h
VALUE_TYPE: IC50 (nM)
Give bare numbers, in nM.

CC[C@H]1OC(=O)[C@H](C)[C@@H](O[C@H]2C[C@@](C)(OC)[C@@H](O)[C@H](C)O2)[C@H](C)[C@@H](O[C@@H]2O[C@H](C)C[C@H](N(C)C)[C@H]2O)[C@](C)(O)C[C@@H](C)CN(C)[C@H](C)[C@@H](O)[C@]1(C)O [AZITHROMYCIN] = 600
CC[C@H]1OC(=O)[C@H](C)[C@@H](O[C@H]2C[C@@](C)(OC)[C@@H](O)[C@H](C)O2)[C@H](C)[C@@H](O[C@@H]2O[C@H](C)C[C@H](N(C)C)[C@H]2O)[C@](C)(O)C[C@@H](C)CN(CCCc2ccccc2)[C@H](C)[C@@H](O)[C@]1(C)O = 600
CC[C@H]1OC(=O)[C@H](C)[C@@H](O[C@H]2C[C@@](C)(OC)[C@@H](O)[C@H](C)O2)[C@H](C)[C@@H](O[C@@H]2O[C@H](C)C[C@H](N(C)C)[C@H]2O)[C@](C)(O)C[C@@H](C)CN(CC2CCCCC2)[C@H](C)[C@@H](O)[C@]1(C)O = 600
CC[C@H]1OC(=O)[C@H](C)[C@@H](O[C@H]2C[C@@](C)(OC)[C@@H](O)[C@H](C)O2)[C@H](C)[C@@H](O[C@@H]2O[C@H](C)C[C@H](N(C)C)[C@H]2O)[C@](C)(O)C[C@@H](C)CN(Cc2ccccc2)[C@H](C)[C@@H](O)[C@]1(C)O = 500
CC[C@H]1OC(=O)[C@H](C)[C@@H](O[C@H]2C[C@@](C)(OC)[C@@H](O)[C@H](C)O2)[C@H](C)[C@@H](O[C@@H]2O[C@H](C)C[C@H](N(C)C)[C@H]2O)[C@](C)(O)C[C@@H](C)CN(Cc2ccc(C)cc2)[C@H](C)[C@@H](O)[C@]1(C)O = 600
C=CCO[C@]1(C)C[C@@H](C)CN(Cc2ccccc2)[C@H](C)[C@@H](O)[C@](C)(O)[C@@H](CC)OC(=O)[C@H](C)[C@@H](O[C@H]2C[C@@](C)(OC)[C@@H](O)[C@H](C)O2)[C@H](C)[C@H]1O[C@@H]1O[C@H](C)C[C@H](N(C)C)[C@H]1O = 10000
CC[C@H]1OC(=O)[C@H](C)[C@@H](O[C@H]2C[C@@](C)(OC)[C@@H](O)[C@H](C)O2)[C@H](C)[C@@H](O[C@@H]2O[C@H](C)C[C@H](N(C)C)[C@H]2O)[C@](C)(O)C[C@@H](C)CN(Cc2ccc(F)cc2)[C@H](C)[C@@H](O)[C@]1(C)O = 500

Now consider the entry below.
For Toxoplasma gondii, provide IC50 of CC[C@H]1OC(=O)[C@H](C)[C@@H](O[C@H]2C[C@@](C)(OC)[C@@H](O)[C@H](C)O2)[C@H](C)[C@@H](O[C@@H]2O[C@H](C)C[C@H](N(C)C)[C@H]2O)[C@](C)(OC)C[C@@H](C)CN(Cc2ccccc2)[C@H](C)[C@@H](O)[C@]1(C)O please.
5000
